Attribution: PubChem BioAssay (NCI)

The reader will find reported TGI values listed item by item below.
Tested on: OVCAR-5 ovarian
testSummary: NCI tumour cell line growth inhibition, 48 h
parameterMeasured: TGI

[
  {
    "molecule": "c1ccc(C2=Nc3cccc4cccc(c34)N2)cc1",
    "reportedResult": "> 100 µM"
  },
  {
    "molecule": "O=C(CCOS(=O)(=O)CF)N1CCN(C(=O)CCOS(=O)(=O)CF)CC1",
    "reportedResult": "> 100 µM"
  },
  {
    "molecule": "COc1ccc(N2C(=O)/C(=C\\c3cccc(Oc4ccccc4)c3)SC2c2ccccc2)cc1 (configuration not stated)",
    "reportedResult": "> 100 µM"
  },
  {
    "molecule": "CN(C)CCC1(C2=CCCC2)CC/C(=C\\c2ccccc2Cl)C1=O (configuration not stated)",
    "reportedResult": "29.1 µM"
  },
  {
    "molecule": "COc1cc2ncn(-c3cc(OCc4ccccc4C(F)(F)F)c(C(C)=O)s3)c2cc1OC",
    "reportedResult": "> 25 µM"
  },
  {
    "molecule": "COc1ccc(/C=c2/sc3n(c2=O)NC(c2ccc(Cl)cc2)NN=3)cc1 (configuration not stated)",
    "reportedResult": "> 100 µM"
  },
  {
    "molecule": "O=C(Nc1nc(C23CC4CC(CC(C4)C2)C3)cs1)c1cc2c(ccc3ccccc32)oc1=O",
    "reportedResult": "> 100 µM"
  }
]

* * *

System: M14 melanoma
testSummary: NCI tumour cell line growth inhibition, 48 h

[
  {
    "structureAsSmiles": "O=C(CN(c1ccc(S(=O)(=O)O)cc1)c1ccc(S(=O)(=O)O)cc1)Nn1cnc2ccc(S(=O)(=O)N(c3ccc(S(=O)(=O)O)cc3)c3ccc(S(=O)(=O)O)cc3)cc2c1=O",
    "unitSpec": "µM",
    "limitSign": ">",
    "TGI": 100
  },
  {
    "structureAsSmiles": "C[N+](C)([O-])Cc1cc(-c2ccccc2)ccc1O",
    "unitSpec": "µM",
    "limitSign": ">",
    "TGI": 100
  },
  {
    "structureAsSmiles": "O=c1[nH]c(=O)n(C/C=C/CBr)nc1Br",
    "unitSpec": "µM",
    "limitSign": "=",
    "TGI": 27.6
  },
  {
    "structureAsSmiles": "O=[N+]([O-])c1cccc2nc3ccccc3c(NCCCN3CCCCC3)c12",
    "unitSpec": "µM",
    "limitSign": "=",
    "TGI": 0.0232
  },
  {
    "structureAsSmiles": "CN(C)C(=O)C1CCN(Cc2c[nH]c3ccccc23)CC1",
    "unitSpec": "µM",
    "limitSign": ">",
    "TGI": 100
  },
  {
    "structureAsSmiles": "CN(C)CCCNC(=O)c1cc(NC(=O)c2cc(NC(=O)[C@@H]3C[C@H]3C(=O)Nc3cc(C(=O)Nc4cc(C(=O)NCCCN(C)C)n(C)c4)n(C)c3)cn2C)cn1C",
    "unitSpec": "µM",
    "limitSign": ">",
    "TGI": 100
  },
  {
    "structureAsSmiles": "CCCCCCCCCOC(=S)NCCCCC",
    "unitSpec": "µM",
    "limitSign": "=",
    "TGI": 87.9
  }
]

* * *

System: OVCAR-3 ovarian
testSummary: NCI tumour cell line growth inhibition, 48 h
Below, each entry is listed with its recorded TGI.

[
  {
    "compound": "COC(=O)C(=O)C(C(=O)C(=O)Nc1ccc(C)cc1)c1nc2ccc(C(=O)c3ccccc3)cc2[nH]c1=O (stereo not drawn)",
    "studyTarget": "OVCAR-3 ovarian",
    "TGI": "> 100 µM"
  },
  {
    "compound": "CCCCCCCCCc1c(O)c(O)c(CCCCCCCCC)c(CCCCCCCCC)c1CCCCCCCCC",
    "studyTarget": "OVCAR-3 ovarian",
    "TGI": "> 100 µM"
  },
  {
    "compound": "COc1ccc(Nc2nc3ccccc3nc2C(=O)O)cc1OC",
    "studyTarget": "OVCAR-3 ovarian",
    "TGI": "> 100 µM"
  },
  {
    "compound": "O=C(Nc1cccc(Cl)c1)c1cc(N=Nc2ccc([N+](=O)[O-])cc2Cl)ccc1O",
    "studyTarget": "OVCAR-3 ovarian",
    "TGI": "4.38 µM"
  },
  {
    "compound": "O=C(NN1C(=O)CSC12CCCC2)C(O)c1ccccc1 (stereo not drawn)",
    "studyTarget": "OVCAR-3 ovarian",
    "TGI": "> 100 µM"
  },
  {
    "compound": "C=C1CC(CN2CCC(=O)NC2=O)(c2ccccc2)OC1=O (stereo not drawn)",
    "studyTarget": "OVCAR-3 ovarian",
    "TGI": "31.7 µM"
  },
  {
    "compound": "C=C1C(=O)OC2C1C(OC(=O)/C(C)=C\\C)CC1(CO1)C1C(O)C=C(C)C21O (stereo not drawn)",
    "studyTarget": "OVCAR-3 ovarian",
    "TGI": "11.3 µM"
  },
  {
    "compound": "C#CCN(N=O)C(=O)NCCCC(NC(C)=O)C(=O)NCc1ccccc1 (stereo not drawn)",
    "studyTarget": "OVCAR-3 ovarian",
    "TGI": "> 100 µM"
  },
  {
    "compound": "C=CCc1cccc(/C=N\\N=C(/N)NO)c1O",
    "studyTarget": "OVCAR-3 ovarian",
    "TGI": "> 25.2 µM"
  },
  {
    "compound": "O=C1/C(=C/c2cccs2)NC(=S)N1CN1CCCC(CO)C1 (stereo not drawn)",
    "studyTarget": "OVCAR-3 ovarian",
    "TGI": "> 100 µM"
  },
  {
    "compound": "C=CCn1cnc2c(=O)[nH]c(Nc3ccccc3)nc21",
    "studyTarget": "OVCAR-3 ovarian",
    "TGI": "> 100 µM"
  },
  {
    "compound": "CC(=O)O[C@H]1C(=O)[C@@]2(C)[C@H]([C@H](OC(=O)c3ccccc3)[C@@]3(O)C[C@H](O)C(C)=C1C3(C)C)[C@]1(OC(C)=O)CO[C@@H]1C[C@@H]2O",
    "studyTarget": "OVCAR-3 ovarian",
    "TGI": "> 100 µM"
  },
  {
    "compound": "COC(=O)C1=C(O)[C@H](C(=O)OC)[C@]2(O)[C@@H](C(=O)OC)[C@H]1C[C@@H](c1ccc(OC(=O)/C=C/c3ccco3)cc1)[C@@H]2C(=O)OC",
    "studyTarget": "OVCAR-3 ovarian",
    "TGI": "82.5 µM"
  }
]

* * *

TGI listing for selected molecules.
Test system: MCF7 breast
testSummary: NCI tumour cell line growth inhibition, 48 h

[
  {
    "molecule": "O=C(O)CCC(NC(=O)c1ccc(CNc2nc3ccccc3nc2C(=O)O)cc1)C(=O)O (stereo not given)",
    "studyTarget": "MCF7 breast",
    "TGI": "> 100 µM"
  },
  {
    "molecule": "O=C(Nc1nc(C23CC4CC(CC(C4)C2)C3)cs1)c1cc2c(ccc3ccccc32)oc1=O",
    "studyTarget": "MCF7 breast",
    "TGI": "> 100 µM"
  },
  {
    "molecule": "COc1ccc(/C=C2/CCS(=O)(=O)c3ccc(C)cc3C2=O)cc1OC",
    "studyTarget": "MCF7 breast",
    "TGI": "> 100 µM"
  },
  {
    "molecule": "CCOC(=O)c1cc(-c2ccc(OC)c(OC)c2)[nH]c1N/N=C/c1c(Cl)cccc1Cl",
    "studyTarget": "MCF7 breast",
    "TGI": "17.8 µM"
  },
  {
    "molecule": "O=C1NC(S(=O)(=O)O)=NNC12c1ccccc1-c1ccccc12",
    "studyTarget": "MCF7 breast",
    "TGI": "> 10 µM"
  },
  {
    "molecule": "COCCOCCOCCOc1ccc(C(C#N)N(CCc2ccccc2)C(=O)c2cc(C(=O)N(CCc3ccccc3)C(C#N)c3ccc(OCCOCCOCCOC)cc3)cc(C(=O)N(CCc3ccccc3)C(C#N)c3ccc(OCCOCCOCCOC)cc3)c2)cc1 (stereo not given)",
    "studyTarget": "MCF7 breast",
    "TGI": "> 100 µM"
  },
  {
    "molecule": "NC(=Nc1nc(-c2ccccn2)cc2ccccc12)c1ccccn1",
    "studyTarget": "MCF7 breast",
    "TGI": "> 100 µM"
  },
  {
    "molecule": "CN1C(=O)C23CCCCC2CC1(c1ccccc1)S3 (stereo not given)",
    "studyTarget": "MCF7 breast",
    "TGI": "> 100 µM"
  },
  {
    "molecule": "O=C(Nc1cccnc1)c1ccc2ccc3ccc(C(=O)Nc4cccnc4)nc3c2n1",
    "studyTarget": "MCF7 breast",
    "TGI": "> 100 µM"
  },
  {
    "molecule": "O=S(=O)(OI(O)CC(F)(F)F)C(F)(F)F",
    "studyTarget": "MCF7 breast",
    "TGI": "> 100 µM"
  }
]
